Where do these numbers come from? They come from ChEMBL document CHEMBL5029142.

- Test system: 4T1
- method: Antitumor activity against mouse 4T1 cells implanted in […] mouse assessed as increase in infiltration of CD8 positive T lymphocytes in tumors at 1 mg, IT administered once daily for 3 consecutive days starting from day 2 post inoculation and measured after 7 days by histochemical staining based analysis
- Type: functional, cell-based
- assay.setup: time 7.0 day
Active and inactive are the calls of the source. No cut-off for these calls is given here. Starred links: 1 amine or outer side, 2 acyl side, 3 side chain; linkers in the order of their positions; H or OH if unused. Positions of bridges follow the written chain, without caps; N, C: chain ends. Non-standard residues stand in square brackets, D forms with d. Residues, ends and D or L forms follow the SMILES beside them. X1 = CC(C)C[C@@](CCCC=[*:3])(N[*:1])C(=O)[*:2]; X2 = NCCCC[C@@](CCCC=[*:3])(N[*:1])C(=O)[*:2]; Dip = N[C@H](C(=O)O)C(c1ccccc1)c1ccccc1; S5 = C=CCCC[C@](C)(N)C(=O)O

- molecule: "NCCCC[C@H](NC(=O)[C@@H](NC(=O)[C@H](Cc1c[nH]c2ccccc12)NC(=O)[C@H](CCCCN)NC(=O)[C@H](CCCCN)NC(=O)[C@H](Cc1c[nH]c2ccccc12)NC(=O)[C@H](Cc1c[nH]c2ccccc12)NC(=O)[C@H](CCCCN)NC(=O)[C@@H](N)CCCCN)C(c1ccccc1)c1ccccc1)C(N)=O [RUXOTEMITIDE] (H-KKWWKKW[Dip]K-NH2)"
  tested.system: "4T1"
  Activity: "inactive"
- molecule: "CC[C@H](C)[C@@H]1NC(=O)[C@H](CCCNC(=N)N)NC(=O)[C@H](CCCCN)NC(=O)[C@@](CC(C)C)(NC(=O)[C@H](CC(C)C)NC(=O)CN)CCC/C=C\\CCC[C@@](CCCCN)(C(=O)N[C@H](C(=O)N[C@@H](CC(C)C)C(=O)N[C@@H](CC(C)C)C(N)=O)[C@@H](C)O)NC1=O (H-GL[X1]KRI[X2]TLL-NH2; staple (Z) 3-7)"
  tested.system: "4T1"
  Activity: "inactive"
- molecule: "CC[C@H](C)[C@H](NC(=O)[C@H](CCCNC(=N)N)NC(=O)[C@H](CCCCN)NC(=O)[C@H](CC(C)C)NC(=O)[C@H](CC(C)C)NC(=O)CN)C(=O)N[C@@H](CCCCN)C(=O)N[C@H](C(=O)N[C@@H](CC(C)C)C(=O)N[C@@H](CC(C)C)C(N)=O)[C@@H](C)O [ANOPLIN] (H-GLLKRIKTLL-NH2)"
  tested.system: "4T1"
  Activity: "inactive"
- molecule: "CC[C@H](C)[C@@H]1NC(=O)[C@H](CCCNC(=N)N)NC(=O)[C@H](CCCCN)NC(=O)[C@@](C)(NC(=O)[C@H](CC(C)C)NC(=O)CN)CCC/C=C\\CCC[C@@](C)(C(=O)N[C@H](C(=O)N[C@@H](CC(C)C)C(=O)N[C@@H](CC(C)C)C(N)=O)[C@@H](C)O)NC1=O (H-GL[S5]KRI[S5]TLL-NH2; staple (Z) 3-7)"
  tested.system: "4T1"
  Activity: "inactive"
